# method: 14C assay: 14CO2 capture from [14C]-carboxyl-labeled dicamba with IPTG-induced recombinant E. coli cells
# details: IPTG-induced recombinant E. coli cells; 14CO2 from [14C]-carboxyl-labeled dicamba

>  <molecule>
55 (protein, listed as Serratia sp.) MAKIICLEEHTLDKALVMASMPAALEQAPFLSDWGKTVTDGNLPDRSRPQIEKNDLINIKGADIGRGRLDDMDVAGITMQVLSVGGFPHLISAAEGVDLNRAANDRLADAVNAHPDRFAAFATLPWAQPDSAEKELERAVKELGFKGALLNGRPSTHFLDHPDYDGLLARFNALGVPLYLHPGLPVRSVQQAYYGGFSDEVTARLSMFGWGWHHEAGIHLLRLILSGAFDKYPNLQVISGHWGEMLPFWLQRLDDSLPQAATGLRRTIAQTFKEQVYVTPSGMLTLPHFQFIYALLGAERIIFSVDYPYQTLDGVKAFIQSLPVPEEAKEAIAFRNAERLLGLTS

>  <Dicamba Decarboxylase Activity>
High

$$$$
>  <molecule>
42 (protein, Agrobacterium radiobacter) MAQGKIALEEHFAIPDTLQDSAGFVPGDYWKELSARLLDIHEQRLMQMDAYGIEKMILSLNAPAVQAIPDKAKALEISRRANDFLAEQCARNPDRFLGFAALPLQDPDAATAELQRCVKTLGFVGALVNGFSQEGDGVTPLYYDLPQYRGFWAEVEKLAVPFYLHPRNPLPQDSRIYAGHPWLMGPTWAFAQETAVHALRLVGSGLFDDHPALRIILGHMGEGLPYMMWRIDNRNAWVKVAPNYPAKRRIADYFNENFYITTSGNFRTQSLVDAMLEIGADRILFSTDWPFENIDHASDWFDTATISEADRLKIGRTNAATLFNLES

>  <Dicamba Decarboxylase Activity>
Low

$$$$
>  <molecule>
58 (protein, Mycobacterium colombiense) MARVIALEEHYATTEFLRGPGTWLASRPGIVEPAGDLGDGRIAAMDQAGVDLAVLSLAAPGVEQLDPDDAVRLARDCNDQLAAAVRRYPDRLAGFATVPTSAPDRAADELERAVRGLGFPGAVINGHSRGRYLDDPFFEPVLARAAELQAPIYLHPTIPPAGVIESSYAGFAEPVTFALATVGWGWHINTATHALRMILGGVFDRHPSLQMIIGHMGEATSFMLPRFDATLKPELTGLNHPVSSYLRENFHYTFANFNDHATYANLVAQVGIERVAFSADYPFGSMVDARAFLDGLPLSDDERAAISHRNAEKLLGL

>  <Dicamba Decarboxylase Activity>
High

$$$$
>  <molecule>
5 (protein, listed as Staphylococcus aureus) MAQNNMEANQMKSITFEEHYVIEDIQKETMNAISADPKGVPMKVMLEGLEKKTGFTNADELSHHDERIQFMNNQDVQIQVLSYGNGSPSNLVGQKAIELCQKANDQLANYIAQYPNRFVGFATLPINEPEAAAREFERCINDLGFKGALIMGRAQDGFLDQDKYDIIFKTAENLGVPIYLHPAPVNSDIYQSYYKGNYPEVTAATFACFGYGWHIDVGIHAIHLVLSGIFDRYPKLNMIIGHWGEFIPFFLERMDEALFAEHLNHPVSYYFKNNFYITPSGMLTKPQFDLVKKEAGIDRILYAADYPYIEPEKLGVFLDELGLTDEEKEKISYTNGAKLLGLSSNN

>  <Dicamba Decarboxylase Activity>
High

$$$$

Value source: patent US20140289906A1
